The entries below are paired with their reported z-score.
Test Summary: modulators of HCV replicon luciferase signal, primary screen, HCV replication inhibitor project, Huh7 cells, luciferase reporter (AID 1109);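 note: huh7 hepatoma cells harbouring a luciferase neomycin HCV replicon reporter; luciferase luminescence as measure of HCV replicon replication; test concentration not given here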
Run Conditions: 48 h, higher = more signal
Give the figure by itself; no unit, no explanation.

Examples from the recorded data:
- Compound: "COC(=O)[C@@H]1CC[C@H](C)[C@@H](c2ccc(C)cc2)N1C(=O)c1ccc(C=NOC[C@@H](O)COCc2ccco2)cc1"
  z-score: -2.42
- Compound: "N#Cc1ccc(NN2C(C(O)c3cc(C(F)(F)F)cc(C(F)(F)F)c3)C=CC3C(=O)N(c4ccccc4)C(=O)C32)cc1 (centres undefined)"
  z-score: -1.99
- Compound: "CC(C)CN1CCc2nc(-c3ccccc3)c3c(c2CC1)CO[C@@H](C)C3"
  z-score: -0.747
- Compound: "C[C@@H]1CC[C@H]2C(=O)O[C@H](COc3ccc(C(C)(C)C)cc3)CN2[C@H]1c1ccc(Br)cc1"
  z-score: 0.0366
- Compound: "O=C1[C@H]2[C@H]3[C@H](O)[C@H](O)CC(=NOC[C@@H](O)COCc4ccco4)[C@H]3CC[C@H]2C(=O)N1C1CCCCC1"
  z-score: -0.353
- Compound: "C#C[C@@H](CC)O[Si](C#Cc1ccc(Oc2ccccc2)cc1)(C(C)C)C(C)C"
  z-score: -0.715

The recorded z-score for entry CCCNC(=O)OC[C@H]1O[C@H](CCON=C2[C@H]3CCn4c(=O)n(-c5ccccc5)c(=O)n4[C@H]3[C@H](O)[C@@H]3O[C@H]23)C=C[C@@H]1Oc1ccc(OC)cc1 equals -4.4

For reference, reported z-score for CC1CC/C=C\[C@H]2OC34C=CCN(C(C)C)C(=O)[C@H]3N(CCCO)C(=O)[C@@H]4C2C(=O)O1 (some centres undefined) stands at -0.513

Recorded result, CC(C)N1CC=CC23O[C@@H]4C=CCCOC(=O)C4[C@H]2C(=O)N(CCCCCCO)[C@@H]3C1=O (some centres undefined) , z-score: -0.845

----------
Test Summary: E. coli DRC41 culture turbidity changes, primary screen, E. coli filamentation inducer project, strain DRC41, OD650, 48 h (AID 1152);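 note: E. coli MC1000 strain DRC41 lacking acrAB efflux pump and sulA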
Run Conditions: E. coli DRC41 (acrAB sulA), higher = more signal, called active from +8 up or from −8 down
Readout Name: z-score
// no unit, no text: just the number

Sample answers from the record:
- Compound: "CO[C@H]1O[C@H](CO)[C@@H](OC(=O)Nc2ccc(C#N)cc2)[C@H](OC(=O)c2cc3ccccc3[nH]2)[C@H]1OC(=O)c1cc2ccccc2[nH]1"
  z-score: 2.89
- Compound: "C/C=C\\[C@@H](NCc1ccccc1Br)[C@@H](O)Cc1ccccc1"
  z-score: -1.43
- Compound: "O=C1[C@H]2[C@H]3[C@H](O)[C@H](O)CC(=NOC[C@@H](O)COCc4ccco4)[C@H]3CC[C@H]2C(=O)N1Cc1ccc2c(c1)OCO2"
  z-score: 0.198
- Compound: "[N-]=[N+]=NCc1ccccc1C[C@]1(C(=O)NCc2ccccc2)N=C(c2ccc(OCCCO)cc2)O[C@H]1c1ccccc1N=[N+]=[N-]"
  z-score: 0.0901
- Compound: "CCOC(=O)[C@H](Cc1ccccc1)NC(=O)CCC1CC(OC(=O)NCc2ccc3c(c2)OCO3)CC2(CCCC(COC(=O)NCC3CCCCC3)O2)O1 (some centres undefined)"
  z-score: -0.251
- Compound: "CC[C@@H](c1ccccc1)n1c(=O)n2n(c1=O)[C@H]1[C@H](O)[C@@H]3O[C@@H]3C(=NOCC(C)C)[C@H]1CC2"
  z-score: -1.11
- Compound: "CC(=O)OC[C@H]1O[C@H](CCON=C(C)CCC(=O)OC[C@H]2O[C@H](C#Cc3ccccc3)C=C[C@@H]2Oc2ccc(C)cc2)C=C[C@@H]1OC(C)=O"
  z-score: 0.604
- Compound: "COC(=O)C1=C(C)N(Cc2ccccc2)[C@]23O[C@](C(=O)OC)(C(=O)N2[C@@H]1c1ccccc1)[C@H]1CCOC(=O)[C@H]13"
  z-score: -0.238
- Compound: "CCOC(=O)[C@H](Cc1ccccc1)NC(=O)CCC1CC(OC(=O)NCc2ccc3c(c2)OCO3)CC2(CCCC(COC(=O)NCc3cccc(C(F)(F)F)c3)O2)O1 (some centres undefined)"
  z-score: -0.667
- Compound: "CC1CC/C=C\\[C@H]2OC34C=CCN(C(C)C)C(=O)[C@H]3N(CCCO)C(=O)[C@@H]4C2C(=O)O1 (some centres undefined)"
  z-score: 0.658

Value of z-score reported for the compound O=C1C2C=CC(C(O)c3ccc([N+](=O)[O-])cc3)N(Nc3ccc([N+](=O)[O-])cc3)C2C(=O)N1c1ccccc1 (centres undefined) is -1.39

Entry COCCNC(=O)OCC1CCCC2(CC(OC(=O)NCCc3ccc(F)cc3)CC(CCC(=O)N[C@@H](C)C(=O)OC)O2)O1 (some centres undefined) ; z-score = 0.622

Measured z-score, CCOC(=O)[C@H](CC(C)C)NC(=O)CCC1CC(OC(=O)NCc2cccc3ccccc23)CC2(CCCC(COC(=O)NCCc3ccccc3OC)O2)O1 (some centres undefined) : -0.596

O=C1O[C@@H](c2ccccc2)[C@@H](c2ccccc2)N2[C@@H](c3ccc(OCCO)cc3)[C@]3(C(=O)Nc4ccc(C#CCCO)cc43)[C@@H](C(=O)N3CCCCCCC3)[C@H]12 has a reported z-score of 0.974

z-score measured on C[C@@H](c1ccccc1)N1C(=O)[C@H]2[C@H]3[C@H](O)[C@H](O)CC(=NOC[C@@H](O)COCc4ccco4)[C@@H]3CC[C@H]2C1=O = -0.224
